tested on: Wolbachia pipientis; experiment: Anti-Wolbachia Cell-Based Screen; type: functional; parameters: scale not given: in the data most compounds retested in dose-response had high values; conditions: 5 µM
Out of some 48,000 compounds screened, about 13,000 (27%) showed an effect of 50% or more. The list shows a part of the results.
Task for the reader: assign each of the following molecules its reported Percent Effect.
Provide the reading as a plain figure in %.

INPUT: Give recorded Percent Effect with Wolbachia pipientis for the following molecule: `Nc1cnc(-c2cccc3ccnn23)cn1`
OUTPUT: -6.103

INPUT: Give recorded Percent Effect with Wolbachia pipientis for the following molecule: CC(C)CN1CC(c2nc(-c3ccsc3)c[nH]2)CC1=O (configuration not stated)
OUTPUT: -7.374

INPUT: Give recorded Percent Effect with Wolbachia pipientis for the following molecule: `Cc1nc(O)cc(C2CCN(C(=O)c3ccsc3)CC2)n1`
OUTPUT: -4.98

INPUT: Give recorded Percent Effect with Wolbachia pipientis for the following molecule: O=C(O)C(F)(F)F.O=C(c1cscn1)N1CC[C@@H]2[C@@H]1CCN2CC1CCOC1 (some centres not stated)
OUTPUT: 116.3

INPUT: Give recorded Percent Effect with Wolbachia pipientis for the following molecule: `CCN(CC)C1CCN(C(=O)c2cc3cc(C)cc(C)c3nc2C)CC1.Cl`
OUTPUT: 152.2

INPUT: Give recorded Percent Effect with Wolbachia pipientis for the following molecule: `Cl.Oc1cc(C2CCNCC2)nc(-c2ccsc2)n1`
OUTPUT: 186.4

INPUT: Give recorded Percent Effect with Wolbachia pipientis for the following molecule: `Cc1cc(C)n(CC(=O)N(C)Cc2csc(-c3cccs3)n2)c(=O)n1`
OUTPUT: -2.174

INPUT: Give recorded Percent Effect with Wolbachia pipientis for the following molecule: `Cc1nc[nH]c1CN1CCn2nc(CN3CC[C@H](F)C3)cc2C1`
OUTPUT: -2.245

INPUT: Give recorded Percent Effect with Wolbachia pipientis for the following molecule: O=C(NCCCc1cccs1)N1CCCCC1CCO (configuration not stated)
OUTPUT: -11.71

INPUT: Give recorded Percent Effect with Wolbachia pipientis for the following molecule: `FC(F)(F)c1cc(C2CCNCC2)nc(-c2ccsc2)n1`
OUTPUT: 147.1

INPUT: Give recorded Percent Effect with Wolbachia pipientis for the following molecule: `Cc1cc(C)n(CC(=O)N2C[C@@H]3CC[C@H](C2)N(CC2CCC2)C3)c(=O)n1`
OUTPUT: 9.507

INPUT: Give recorded Percent Effect with Wolbachia pipientis for the following molecule: O=C1NCCCCC1NCc1csc(-c2ccsc2)n1 (configuration not stated)
OUTPUT: -2.584

INPUT: Give recorded Percent Effect with Wolbachia pipientis for the following molecule: `O=C(O)C(F)(F)F.O=C(c1cscn1)N1CC[C@@H]2[C@@H]1CCN2CC1CCOCC1`
OUTPUT: 90.26

INPUT: Give recorded Percent Effect with Wolbachia pipientis for the following molecule: CCc1n[nH]c(C2CN(Cc3nnc(C4CC4)n3C)CCO2)n1 (configuration not stated)
OUTPUT: -1.784

INPUT: Give recorded Percent Effect with Wolbachia pipientis for the following molecule: `CC(C)Cc1cc(C(=O)N2CCC(N3CCCC3)CC2)cc(O)n1`
OUTPUT: 3.394

INPUT: Give recorded Percent Effect with Wolbachia pipientis for the following molecule: `O=C(O)C(F)(F)F.O=C(c1cccc(F)c1)N1CC[C@H]2[C@H]1CCN2CC1CCOCC1`
OUTPUT: -10.34

INPUT: Give recorded Percent Effect with Wolbachia pipientis for the following molecule: Cc1cc(C)n(CC(=O)N2CCCCC2CCc2cccs2)c(=O)n1 (configuration not stated)
OUTPUT: 103.5

INPUT: Give recorded Percent Effect with Wolbachia pipientis for the following molecule: `Cc1cc(C)c2nc(C)c(C(=O)N3CCC(N4CCCC4)CC3)cc2c1`
OUTPUT: 84.44

INPUT: Give recorded Percent Effect with Wolbachia pipientis for the following molecule: `CC(C)(C)c1nnc(CN2CCC(c3cc4ccccc4[nH]3)CC2)o1`
OUTPUT: 4.334

INPUT: Give recorded Percent Effect with Wolbachia pipientis for the following molecule: `COC[C@@]12CC[C@@H](N3CCOCC3)C[C@H]1CCN(c1nc(CO)cs1)C2`
OUTPUT: -10.66

INPUT: Give recorded Percent Effect with Wolbachia pipientis for the following molecule: COCCOc1ccc(NC(=O)N(CC2CCOC2)C2CC2)cn1 (configuration not stated)
OUTPUT: -6.429

INPUT: Give recorded Percent Effect with Wolbachia pipientis for the following molecule: `COC(=O)[C@H](CSC)Nc1nc(C2CCCC2)nc2c1cnn2C`
OUTPUT: -6.594
